- assayed-system: T1, human collagen type I, acid soluble, extracted from placenta (Sigma C7774) (human, UniProt P02452 162-1218; P08123 80-1119)
- T1 construct: tissue extract, gelled and dried in wells; also called dried human collagen; h-Collagen
- T1 sequence (P02452 162-1218 limits assumed, chain 1 of 2): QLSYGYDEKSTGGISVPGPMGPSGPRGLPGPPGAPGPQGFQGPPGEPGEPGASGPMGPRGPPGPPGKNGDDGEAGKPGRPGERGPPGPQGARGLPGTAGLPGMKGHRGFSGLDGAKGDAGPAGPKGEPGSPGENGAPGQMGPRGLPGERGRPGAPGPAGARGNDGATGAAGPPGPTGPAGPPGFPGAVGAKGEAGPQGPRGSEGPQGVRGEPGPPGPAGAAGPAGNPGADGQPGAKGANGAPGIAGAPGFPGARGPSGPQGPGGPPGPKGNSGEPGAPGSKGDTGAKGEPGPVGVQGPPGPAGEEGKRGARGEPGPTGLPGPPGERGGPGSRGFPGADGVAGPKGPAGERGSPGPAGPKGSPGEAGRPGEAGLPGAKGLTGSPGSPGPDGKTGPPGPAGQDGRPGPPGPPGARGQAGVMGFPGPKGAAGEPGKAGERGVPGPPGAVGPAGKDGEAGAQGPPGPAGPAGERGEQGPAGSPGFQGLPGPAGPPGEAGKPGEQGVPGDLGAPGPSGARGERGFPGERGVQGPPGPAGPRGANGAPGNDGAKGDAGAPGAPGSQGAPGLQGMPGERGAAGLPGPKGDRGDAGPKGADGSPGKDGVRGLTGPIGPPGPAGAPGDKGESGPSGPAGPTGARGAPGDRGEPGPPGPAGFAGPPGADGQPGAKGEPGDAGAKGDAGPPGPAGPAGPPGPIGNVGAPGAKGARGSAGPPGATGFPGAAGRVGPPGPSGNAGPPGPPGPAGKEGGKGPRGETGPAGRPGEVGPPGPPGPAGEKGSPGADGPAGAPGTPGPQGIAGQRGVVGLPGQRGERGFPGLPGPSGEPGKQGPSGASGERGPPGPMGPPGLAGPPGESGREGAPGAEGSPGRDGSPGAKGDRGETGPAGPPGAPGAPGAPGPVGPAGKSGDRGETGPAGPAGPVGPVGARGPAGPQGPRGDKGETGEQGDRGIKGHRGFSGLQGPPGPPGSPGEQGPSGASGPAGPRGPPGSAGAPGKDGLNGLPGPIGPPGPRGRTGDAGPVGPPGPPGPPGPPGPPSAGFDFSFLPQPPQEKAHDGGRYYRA
- T1 sequence (P08123 80-1119 limits assumed, chain 2 of 2): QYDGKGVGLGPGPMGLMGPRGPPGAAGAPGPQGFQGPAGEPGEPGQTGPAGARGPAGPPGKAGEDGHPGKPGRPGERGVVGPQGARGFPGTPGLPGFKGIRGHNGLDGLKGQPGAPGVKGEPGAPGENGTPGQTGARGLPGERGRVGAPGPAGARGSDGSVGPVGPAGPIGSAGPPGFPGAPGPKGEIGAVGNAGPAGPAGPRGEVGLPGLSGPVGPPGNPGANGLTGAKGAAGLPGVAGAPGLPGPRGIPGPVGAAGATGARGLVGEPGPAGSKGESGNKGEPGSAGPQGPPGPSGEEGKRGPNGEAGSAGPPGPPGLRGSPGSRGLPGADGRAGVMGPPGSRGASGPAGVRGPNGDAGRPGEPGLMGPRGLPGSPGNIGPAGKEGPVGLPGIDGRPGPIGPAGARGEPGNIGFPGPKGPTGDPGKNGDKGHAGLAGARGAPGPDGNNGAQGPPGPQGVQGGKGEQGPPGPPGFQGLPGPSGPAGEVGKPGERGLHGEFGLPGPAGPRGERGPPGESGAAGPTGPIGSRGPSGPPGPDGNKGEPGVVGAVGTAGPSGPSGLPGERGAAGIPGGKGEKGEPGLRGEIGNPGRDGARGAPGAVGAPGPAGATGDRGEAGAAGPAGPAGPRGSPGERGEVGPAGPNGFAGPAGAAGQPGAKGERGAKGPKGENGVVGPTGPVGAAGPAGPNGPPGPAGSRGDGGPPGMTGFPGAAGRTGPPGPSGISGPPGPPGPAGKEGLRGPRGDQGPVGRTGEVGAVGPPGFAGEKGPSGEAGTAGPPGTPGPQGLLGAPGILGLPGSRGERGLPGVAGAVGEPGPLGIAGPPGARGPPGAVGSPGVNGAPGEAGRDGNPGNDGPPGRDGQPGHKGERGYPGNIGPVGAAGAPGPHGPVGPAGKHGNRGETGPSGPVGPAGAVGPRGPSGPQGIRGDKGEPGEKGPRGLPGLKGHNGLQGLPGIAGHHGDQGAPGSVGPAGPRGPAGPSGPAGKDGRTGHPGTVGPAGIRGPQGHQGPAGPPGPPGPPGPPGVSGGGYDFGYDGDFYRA
- assay-comment: dried collagen assay
Bridge positions count the residues as written; N and C are the ends. Square brackets hold non-standard residues; d marks the D form. Primed or numbered codes have the meaning given here. Side chains are listed from the residue outwards. Ends that are not written are not given here. Gd^D = GdDOTAGA (gadolinium DOTAGA chelate); Gd^G = not defined here; Gd^T″ = GdDTPA-thiourea
assay-metric: % bound (%)

I: {Gd^T″}-GK([Gly-Gd^T″])WHCYTK(Gd^T″)FPHHYCVYY (disulfide 5-14 (inferred); not fully specified (C-terminus)) [Compound ID 979]
II: {Gd^D}-K(Gd^D)K(Gd^D)YWHCYTYFPHHYCVYG (disulfide 6-15 (inferred)) [Compound ID 1018]
III: {Gd^G}-PWTCSGDEYAWHCNY[dE] (disulfide 4-13 (inferred); not fully specified (C-terminus); reading uncertain) [Compound ID 824]
With regard to % bound, arrange the entries in ascending order, please. To answer, write out the labels according to the requested order. III, II, I
(III: 12%, II: 53%, I: 87%)
